Biological target: P. hospita MdlR (C2L64_43720) (Paraburkholderia hospita)
Construct: gene WQE_50835; full-length LysR-type regulator, gene codon-optimised for E. coli, expressed from Ptrc in E. coli NEB 5-alpha; rfp reporter under P. hospita PmdlC (PC2L64_43715)
Sequence (A0AAN1MPU5 1-297): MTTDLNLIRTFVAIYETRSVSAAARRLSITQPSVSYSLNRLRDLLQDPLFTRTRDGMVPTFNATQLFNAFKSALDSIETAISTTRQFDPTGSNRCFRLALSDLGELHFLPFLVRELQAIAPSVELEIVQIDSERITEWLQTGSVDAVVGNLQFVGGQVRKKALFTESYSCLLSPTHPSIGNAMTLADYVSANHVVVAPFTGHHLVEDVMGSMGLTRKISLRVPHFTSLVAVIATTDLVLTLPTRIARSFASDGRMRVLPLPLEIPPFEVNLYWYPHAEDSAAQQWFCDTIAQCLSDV
Test: E. coli whole-cell RFP reporter assay, Hill fit
Assay type: cell-based
Details: read-out: Km ^a
REPORTED METRIC: EC50 (µM)

> print(dat)
                                   compound                              study.system  reported.metric  result.number
1  O=C(O)C(=O)c1ccccc1 [compound 4, phenylglyoxylate]  P. hospita MdlR (C2L64_43720) (Paraburkholderia hospita)             EC50             93
2  O=C(O)[C@@H](O)c1ccccc1 [compound 1, S-mandelate]  P. hospita MdlR (C2L64_43720) (Paraburkholderia hospita)             EC50            167

Data origin, for the record: paper PMC10204090
